- Test system: MS2 coat protein
- protocolNotes: apparent KD of MS2 coat protein; designed switch direction (-1 OFF switch, 1 ON switch): -1; higher = weaker reporter binding
- conditionDetails: input ligand: microRNA oligo, concentration not stated
# Lookup of reported apparent KD of MS2 coat protein keyed by entry
Reply with the number and its unit after it.

Some sequences with known apparent KD of MS2 coat protein results, for comparison:
AGCUAGUCAGGAUAUACAAACAUGUCAAAAGACGUGAAGGGACAUGAGGAUCACCCAUGUAGAAGGGACUAGCA [Web Mod 74% 2] (Eterna round: R96, puzzle: Exclusion 2); 43.1 nM
AUAAAACGUGUAGGAUAUGCGUGGCGAAGCUAUGCAGAAGGACAUGAGGAUCACCCAUGUUCAAGCGUCUGCGUACAGAUGCUA [JL eng1 1.35 mod 6] (Eterna round: R96, puzzle: Exclusion NG 1); 14.1 nM

Inquiry: Returns the measured apparent KD of MS2 coat protein for the input sequence. Input: GCGCCAUCGUGAGAUGGCGUAAUUACAUGAGGAUCACCCAUGUAGGAUAUCGAUUGCUUUGCAGUCGAGAAGGACAUGAUAAUU [JL ENG3 3.80] (Eterna round: R96, puzzle: Exclusion NG 3)
Reply text: 25 nM

###

- Tested on: K4 kissing-loop RNA reporter
- protocolNotes: apparent KD of K4 kissing-loop reporter; higher = weaker reporter binding
- conditionDetails: Eterna round: R107; input ligand: none
# Lookup of reported apparent KD of K4 kissing-loop reporter keyed by entry
State the answer as a number, implicitly in nM.

Some sequences with known apparent KD of K4 kissing-loop reporter results, for comparison:
UAUAUAGUGAUGUUAUAUGGGAAGGAGUUACGAGGACCGGUACGGCCGCCACUCGAAACGAGUGAGGAUUUGGGAGAUUGGGUUU [SSTryptA.S]; 206
GAGGUGCUGAUGCGGUGGCCGGUGGUCGUGCGAGGACCGGUACGGCCGCCACUCGCAUGAGUGAUGUUCAUGUGUCGUCGUCGUC [whbob_EX_Tryp_A_t3]; 132
AUGUAUGAAUUAGGAUAUCGUGAGCCAUGCAUAUAUAUGAUAAAUGGAUAUGUCGUAGUGAUGUUACGAGAAGGAGUGUGGAGUA [KL-XFMN-B2]; 74.7
CGAGUGAUGUUCGUUUUUUUAUUUUUUUGACAGGAUAUGCGGAAACGCAGAAGGGUCACCUUUGAGUUAAAAGAAUUUAAAUUAU [Ex FMN A 23]; 254
AGAGAUAAGGCGGCCGCCACUAAGAUGAAACUAACGGUCAAGUGAUGUUUGCGGUUACAGUUCAGUAGGACCGGGCCGAGUAAAU [theeternabot_sameState_KL_Trp_B_47]; 407
AGCCGAAAGGCGAGUGCUGUCACUCCGGAAGGAGCGCUCAAAAGAGCAGGUAGGUCGCCGGAGUGAUGUUCCGGUGCAGCACUCA [Omei KL Arginine A Exc B v4]; 580

# input for lookup
Inquiry: Returns the measured apparent KD of K4 kissing-loop reporter for the input sequence. Input: AAGGCACGGCUUCGGCCGUGCCAAAUAGAUACCAGCAUAAUAAUAUGCCCUUGGCAGCUAAAUAGAAAUUCAGUGAUGUUGGAUA [SS Theo A Tesla 2.1]
Reply text: 601

###

- Tested on: K4 kissing-loop RNA reporter
- protocolNotes: apparent KD of K4 kissing-loop reporter; higher = weaker reporter binding
- conditionDetails: Eterna round: R107; input ligand: tryptophan 2.4 mM
# Lookup of reported apparent KD of K4 kissing-loop reporter keyed by entry
State the answer as a number, implicitly in nM.

Some sequences with known apparent KD of K4 kissing-loop reporter results, for comparison:
CGCCACAACUGAAGGAGCGCGCCAGUGAUGUUGGACGGCUUCGUCAAGGAAACUGCACCGGUGCAGGUAGGUCGCAGUGCGUGGU [Eranarve]; 195
UGGGCCGCCUGAGGAUAUAGAGACGAGUGAUGUUCGUGGAUCAGAGCCAGUGAUGUUGGGUUAUUUCUAGAAGGCGGGCGAACUU [Exclusion FMN B GF10]; 120
GUAGGAUGAGGAGGAGGAUGAAUUACUGAAGGAGCGCAAAGAAAUGCAGGUAGGUCGCGGUAAAGAAGUAUAGUGAUGUUAUAUC [#08 K4 Arginine A Same State]; 598
CCUUGGAUUAGCUGUACUUUUCUACGGGAUACCAGUGCGUAACACCACCCUUGGCAGCCCGAUUACCGGCAGUGAUGUUGCCUCU [theeternabot_sameState_KL_Theo_A_41]; 192
UGACUGGACUGAAGGAGCGCGCGAGACAAAGUCUCGAACUCUUAGUGAUGUUAAGAAAUAACGCAGGUAGGUCGCAGUCUAGUCU; 150
AAUUUAGUGACGGCCGCCACUAGGGUGAUUUAUUUGUUUGAGUGAUGUUUUGAUGUUUGAUUUUGUAGGACCGGGUUAGGUGAUG [dddcmullin]; 271
AAGUGAUGUUGUAGUGAUGUUGUGAUGUUGCAGGAUAUAUAGUGAUGUAGAAGGGUAUGUACAGUUUUUUUUUUUGAGUGAUGAU [vvcvmullin]; 70.3
GCCAGAGCGCGAAGGAGCGCCCUGACAGGUUGCUGCCGUGGGCAGUGAUGUUGCUCAGUCCGGCAGGUAGGUCGCGUGCUCUGGC; 174

Inquiry: Form field - read-out: apparent KD of K4 kissing-loop reporter; system: K4 kissing-loop RNA reporter; submitted item: UGACUGGAUGGAAGGAGCGCUAAACUCCUAGUGAUGUUAGGGAUACGAGGCAAAGCCUCGAAGCAGGUAGGUCGCCAUCUAGUCU [FiskerMod 21 - Jieux - Same State - Arginine B]
Reply text: 159

Inquiry: Form field - read-out: apparent KD of K4 kissing-loop reporter; system: K4 kissing-loop RNA reporter; submitted item: CUGCAACAUAACUUCUUCGUCCUAGAAGACUAGGAUAUCAGGAAACUGAGAAGGAGUCUCUGCAGUGAUGUUGCAGCUAGGACGA [[K]'-[F2]'-[F1]'-[F1]-[F2]-[K1]-[K2]-[F]''_Design3]
Reply text: 173

Inquiry: Form field - read-out: apparent KD of K4 kissing-loop reporter; system: K4 kissing-loop RNA reporter; submitted item: GAGAUGCACCAGUCUUAACGUGACUUAUCCCGAGGACCGGUACGGCCGCCACUCGCGUACUACUAGUGAUGUUGGUCAGUAUGAG [theeternabot_sameState_KL_Trp_A_26];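 also: bound reporter read as fluorescence of individual clusters on recovered sequencing chips by microscopy, with normalized cluster intensities fitted with a binding model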
Reply text: 235
